assay: RP-TLC lipophilicity; type: physicochemical; settings: Table S3
METRIC: -S TLC (slope of linear equation)
One number for each entry.

Example results:
O=C(COc1ccc(Cl)cc1Cl)NNC(=S)Nc1ccccc1F :: 3.1923
O=C(COc1ccc(Cl)cc1Cl)NNC(=S)Nc1ccccc1Br :: 3.3663

Hi! Can you tell me -S TLC (slope of linear equation) for each of these compounds?
1. O=C(COc1ccc(Cl)cc1Cl)NNC(=S)Nc1ccccc1I
2. O=C(COc1ccc(Cl)cc1Cl)NNC(=S)Nc1ccc(F)cc1
3. CSc1ccc(NC(=S)NNC(=O)COc2ccc(Cl)cc2Cl)cc1

[3.3436, 3.4335, 3.8253]

Hi! Can you tell me -S TLC (slope of linear equation) for each of these compounds?
1. O=C(COc1ccc(Cl)cc1Cl)NNC(=S)Nc1ccc(Br)cc1
2. O=C(COc1ccc(Cl)cc1Cl)NNC(=S)Nc1ccc([N+](=O)[O-])cc1
3. O=C(COc1ccc(Cl)cc1Cl)NNC(=S)Nc1cccc2ccccc12
4. O=C(COc1ccc(Cl)cc1Cl)NNC(=S)Nc1ccc(I)cc1

[4.1984, 2.9474, 3.8345, 4.4553]

----------
test system: BJ normal fibroblast cell line; experiment: MTT cytotoxicity, BJ normal fibroblasts; type: cell-based, human; conditions: Homo sapiens, Fibroblast; MTT test, 24 h treatment, BJ normal fibroblasts, concentration range 10-250 µM; read-out: IC50 BJ
pIC50: −log10 of the molar value.
METRIC: pIC50

Example results:
CSc1ccc(NC(=S)NNC(=O)COc2ccc(Cl)cc2Cl)cc1 [PK2] :: < 3.60
O=C(COc1ccc(Cl)cc1Cl)NNC(=S)Nc1ccccc1F [PK1] :: < 3.60

In the following, a different compound is considered.
Entry O=C(COc1ccc(Cl)cc1Cl)NNC(=S)Nc1ccc(I)cc1 [PK7] has what pIC50?
3.67

----------
Please go through the items and note down their IC50.
system: G-361 melanoma; experiment: MTT cytotoxicity, G-361 melanoma; type: cell-based, human; conditions: Homo sapiens; MTT test, 24 h treatment, G-361 melanoma
Give bare numbers, in µM.

CSc1ccc(NC(=S)NNC(=O)COc2ccc(Cl)cc2Cl)cc1 :: 108

In the following, a different compound is considered.
Entry O=C(COc1ccc(Cl)cc1Cl)NNC(=S)Nc1ccc(I)cc1 has what IC50?
99

----------
Please go through the items and note down their logkW (chromatographic lipophilicity parameter).
test: RP-HPLC lipophilicity; format: physicochemical; conditions: Kinetex C18, methanol-water 55-80%, extrapolated to 0% methanol
Give bare numbers.

Example results:
O=C(COc1ccc(Cl)cc1Cl)NNC(=S)Nc1cccc2ccccc12 :: 4.6425
O=C(COc1ccc(Cl)cc1Cl)NNC(=S)Nc1ccc([N+](=O)[O-])cc1 :: 2.7667
O=C(COc1ccc(Cl)cc1Cl)NNC(=S)Nc1ccc(I)cc1 :: 4.5363
O=C(COc1ccc(Cl)cc1Cl)NNC(=S)Nc1ccccc1Br :: 3.93
O=C(COc1ccc(Cl)cc1Cl)NNC(=S)Nc1ccccc1I :: 4.1439
O=C(COc1ccc(Cl)cc1Cl)NNC(=S)Nc1ccc(F)cc1 :: 3.8993

Hi! Can you tell me logkW (chromatographic lipophilicity parameter) for each of these compounds?
1. O=C(COc1ccc(Cl)cc1Cl)NNC(=S)Nc1ccccc1F
2. O=C(COc1ccc(Cl)cc1Cl)NNC(=S)Nc1ccc(Br)cc1
3. CSc1ccc(NC(=S)NNC(=O)COc2ccc(Cl)cc2Cl)cc1

[3.4437, 4.3897, 4.7804]

----------
Please go through the items and note down their RMW (chromatographic lipophilicity parameter).
assay: RP-TLC lipophilicity; assay type: physicochemical; details: RP-18 plates, methanol-water 65-95%, extrapolated to 0% methanol
Give bare numbers.

CSc1ccc(NC(=S)NNC(=O)COc2ccc(Cl)cc2Cl)cc1 :: 3.2058

Hi! Can you tell me RMW (chromatographic lipophilicity parameter) for each of these molecules?
1. O=C(COc1ccc(Cl)cc1Cl)NNC(=S)Nc1ccccc1F
2. O=C(COc1ccc(Cl)cc1Cl)NNC(=S)Nc1ccccc1Br
3. O=C(COc1ccc(Cl)cc1Cl)NNC(=S)Nc1ccc(F)cc1
4. O=C(COc1ccc(Cl)cc1Cl)NNC(=S)Nc1cccc2ccccc12

1: 2.6706; 2: 2.7832; 3: 2.7612; 4: 3.1398

Hi! Can you tell me RMW (chromatographic lipophilicity parameter) for each of these molecules?
1. O=C(COc1ccc(Cl)cc1Cl)NNC(=S)Nc1ccc(I)cc1
2. O=C(COc1ccc(Cl)cc1Cl)NNC(=S)Nc1ccc([N+](=O)[O-])cc1
3. O=C(COc1ccc(Cl)cc1Cl)NNC(=S)Nc1ccc(Br)cc1
4. O=C(COc1ccc(Cl)cc1Cl)NNC(=S)Nc1ccccc1I

1. 3.8527
2. 2.4459
3. 3.5706
4. 2.8125

----------
test: RP-HPLC lipophilicity; format: physicochemical; details: Table S3
Please go through the items and note down their -S HPLC (slope of linear equation).
Numbers only.

O=C(COc1ccc(Cl)cc1Cl)NNC(=S)Nc1ccc(Br)cc1 [PK12] :: 5.8565
O=C(COc1ccc(Cl)cc1Cl)NNC(=S)Nc1ccccc1I [PK6] :: 5.4574
CSc1ccc(NC(=S)NNC(=O)COc2ccc(Cl)cc2Cl)cc1 [PK2] :: 6.3581
O=C(COc1ccc(Cl)cc1Cl)NNC(=S)Nc1cccc2ccccc12 [PK9] :: 6.1619

Hi! Can you tell me -S HPLC (slope of linear equation) for each of these compounds?
1. O=C(COc1ccc(Cl)cc1Cl)NNC(=S)Nc1ccccc1F [PK1]
2. O=C(COc1ccc(Cl)cc1Cl)NNC(=S)Nc1ccccc1Br [PK11]
3. O=C(COc1ccc(Cl)cc1Cl)NNC(=S)Nc1ccc(F)cc1 [PK5]
4. O=C(COc1ccc(Cl)cc1Cl)NNC(=S)Nc1ccc(I)cc1 [PK7]
5. O=C(COc1ccc(Cl)cc1Cl)NNC(=S)Nc1ccc([N+](=O)[O-])cc1 [PK3]

1. 4.9238
2. 5.3438
3. 5.5119
4. 5.9005
5. 3.8522
